PROTOCOL_DESCRIPTION: Pharmacokinetics in ICR mice after intravenous and intragastric administration
Assay type: in vivo
STATED_CONDITIONS: male, ICR, mouse, plasma, iv, 2 mg/kg, ICR mice, IV 2 mg/kg, mean of 3 animals; second MRT column (c7) of Table 26; read-out: MRT(0-t)
METRIC: MRT last
I'd appreciate it if you included the unit after the number.

[in] Requested read-out: MRT last. Entry: `COc1nc(OCCF)ncc1-c1nc2c(n1C(C)C)[C@@]1(C(=O)Nc3cc(Cl)ccc31)N(c1cc(Cl)ccc1C)C2=O`
[out] 3.36 h

====

Reported MRT last values follow for various compounds
PROTOCOL_DESCRIPTION: Pharmacokinetics in ICR mice after intravenous and intragastric administration
Assay type: in vivo
STATED_CONDITIONS: male, ICR, mouse, plasma, iv, 2 mg/kg, ICR mice, IV 2 mg/kg, mean of 3 animals; read-out: MRT(0-t)
Answer in h, number only, no unit symbol.

Example compounds with recorded MRT last:
COc1cc(OC)c(-c2nc3c(n2C(C)C)[C@@]2(C(=O)Nc4cc(Cl)ccc42)N(c2cc(Cl)ccc2F)C3=O)cn1 :: 1.14
COc1cc(OC(C)C)ncc1-c1nc2c(n1C(C)C)[C@@]1(C(=O)Nc3cc(Cl)ccc31)N(c1cc(Cl)ccc1C)C2=O :: 4.43
COc1nc(C2CC2)ncc1-c1nc2c(n1C(C)C)[C@@]1(C(=O)Nc3cc(Cl)ccc31)N(c1cc(Cl)cnc1C)C2=O :: 1.4
CCOc1cc(OC)c(-c2nc3c(n2C(C)C)[C@@]2(C(=O)Nc4cc(Cl)ccc42)N(c2cc(Cl)ccc2F)C3=O)cn1 :: 1.6
COc1nc(N(C)C)ncc1-c1nc2c(n1C(C)C)[C@@]1(C(=O)Nc3cc(Cl)ccc31)N(c1cc(Cl)cnc1C)C2=O :: 1.65

Here's the next entry for you.
[in] Look up MRT last: `COc1ncc(-c2nc3c(n2C(C)C)[C@@]2(C(=O)Nc4cc(Cl)ccc42)N(c2cc(Cl)ccc2F)C3=O)c(OC)n1`
[out] 1.77
